System: RPS6KA5(Kin.Dom.2-C-terminal)
PROTOCOL_CONDITIONS: concentration: 1 μM, replicates: in singlicate; n = 1;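 also: KINOMEscan kinase panel screen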
ENDPOINT_LABEL: %Inh (%)
The figure you give is taken to be in %; do not add the unit.

# COMPOUND, READOUT_UNIT, NUMBER
measured = [
    ("COc1ccc(-c2cc3c(C)nc(N)nc3n([C@H]3CC[C@H](O)CC3)c2=O)cn1", "%", 0),
    ("Nc1ncnc2c1ncn2-c1ccc(Cl)cc1", "%", 8),
    ("Cc1ccc(-c2ccc3c(ccc4sc5c(c43)NC[C@@H](C)N=C5N(C)C)n2)cn1", "%", 0),
    ("COc1ccc(Nc2nccc(N3CCC(NS(=O)(=O)c4ccc(NC(C)=O)cc4)C3)n2)cc1 (stereo not drawn)", "%", 0),
    ("O=C(NCCNc1ccnc(Nc2ccc(F)cc2)n1)Nc1ccc2c(c1)OCO2", "%", 10),
]

# input Report %Inh for COc1cc2ncn(-c3cc(OCCCc4ccccc4)c(C(N)=O)s3)c2cc1OC
# output 0

# input Report %Inh for COc1cc(OC)cc(-c2cc3cnc(N)nc3nc2NC(=O)NC(C)(C)C)c1
# output 0

# input Report %Inh for CCC(=O)c1c(-c2ccccc2)c2cc(Cl)ccc2c(=O)n1Cc1cc(S(C)(=O)=O)n(CCC(C)(C)O)n1
# output 1

# input Report %Inh for Nc1nc(-c2ccccc2F)c(-c2ccnc3ccccc23)s1
# output 1

###

Test system: FLT3-autoinhibited
PROTOCOL_CONDITIONS: concentration: 1 μM, replicates: in singlicate; n = 1
Returns one of rule met or rule not met; rule met when %Inh is >= 5%.

# COMPOUND, ASSIGNED_CLASS
data = [
    ("CC(C)(C)c1ccc(C(=O)Nc2cn3cc(-c4ccccc4)ccc3n2)cc1", "rule not met"),
]

# input For this compound, is measured %Inh 5% or higher? Nc1ncnc2c1ncn2-c1cccc(F)c1 [SKF-97560]
# output rule met

# input For this compound, is measured %Inh 5% or higher? Cc1ccc(Oc2ccc(Nc3ncnc4cc[nH]c34)cc2C)cn1
# output rule met

###

Tested on: BMPR2
PROTOCOL_CONDITIONS: concentration: 1 μM, replicates: in singlicate; n = 1
ENDPOINT_LABEL: %Inh (%)
The figure you give is taken to be in %; do not add the unit.

Please review the entries below; each comes with its answer.
# COMPOUND, NUMBER
rows = [
    ("COc1ccc(-c2cc3c(C)nc(N)nc3n([C@H]3CC[C@H](O)CC3)c2=O)cn1", 0),
    ("CCC(=O)c1c(-c2ccccc2)c2cc(Cl)ccc2c(=O)n1Cc1ccc(C(=O)O)cc1", 4),
    ("CN1C(=O)C(Nc2cc(Cl)c(O)c(Cl)c2)=C(c2ccc(Cl)cc2)C1=O", 1),
    ("Cc1ccc(-c2ccc3c(ccc4sc5c(c43)NC[C@@H](C)N=C5N(C)C)n2)cn1", 0),
    ("COc1cc2ncn(-c3cc(OCc4ccncc4)c(C(N)=O)s3)c2cc1OC", 0),
    ("Cc1nnc(-c2ccc3ncn(-c4ccc(S(C)=O)cc4)c3c2)o1 (centres unmarked)", 0),
]

# input Report %Inh for COC(=O)c1c(-c2ccccc2)c2cc(Br)ccc2c(=O)n1Cc1ccc(S(C)(=O)=O)cc1
# output 3

# input Report %Inh for CCC(=O)c1c(-c2ccccc2)c2cc(Cl)ccc2c(=O)n1Cc1cc(S(C)(=O)=O)n(CC(F)F)n1
# output 1
